Reported inhibition at 50 µM is given for each of the following molecules.
# TARGET_OR_TEST_SYSTEM: UniProt:A9B244
# Sequence (A9B244 entry or part of it): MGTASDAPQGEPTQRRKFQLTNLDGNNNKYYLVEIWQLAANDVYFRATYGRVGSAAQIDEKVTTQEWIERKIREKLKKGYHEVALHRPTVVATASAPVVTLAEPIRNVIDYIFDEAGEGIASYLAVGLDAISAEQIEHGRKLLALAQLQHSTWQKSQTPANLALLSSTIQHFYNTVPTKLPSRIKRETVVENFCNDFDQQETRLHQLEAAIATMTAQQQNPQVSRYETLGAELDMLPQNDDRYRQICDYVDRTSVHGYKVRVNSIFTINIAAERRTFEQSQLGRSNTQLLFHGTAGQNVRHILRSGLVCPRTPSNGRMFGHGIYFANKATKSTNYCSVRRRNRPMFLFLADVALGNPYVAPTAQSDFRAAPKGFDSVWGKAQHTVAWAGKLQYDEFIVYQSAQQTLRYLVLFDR
# ASSAY_METHOD_TEXT: PARP inhibition, NAD+ cycling assay (alcohol dehydrogenase/diaphorase, resorufin fluorescence)
# Assay type: biochemical
# EXPERIMENTAL_PARAMETERS: read-out: HaPARP Inhibition (%)

- MOLECULE: "C[C@]1(c2nc3c(C(N)=O)cccc3[nH]2)CCCN1 [ABT-888]"
  TARGET_OR_TEST_SYSTEM: "UniProt:A9B244"
  inhibition at 50 µM, %: 37.1
- MOLECULE: "Oc1nc(-c2ccc(C(F)(F)F)cc2)nc2c1CSCC2 [XAV-939]"
  TARGET_OR_TEST_SYSTEM: "UniProt:A9B244"
  inhibition at 50 µM, %: 45.7
- MOLECULE: "NS(=O)(=O)c1cc2c3c(cccc3c1)C(=O)NC2=O [compound 7650155]"
  TARGET_OR_TEST_SYSTEM: "UniProt:A9B244"
  inhibition at 50 µM, %: 3.1
- MOLECULE: "CNCc1ccc(-c2[nH]c3cc(F)cc4c3c2CCNC4=O)cc1 [Rucaparib]"
  TARGET_OR_TEST_SYSTEM: "UniProt:A9B244"
  inhibition at 50 µM, %: 100
